System: Oxytocin receptor (Homo sapiens, UniProt P30559)
Sequence (P30559 whole entry): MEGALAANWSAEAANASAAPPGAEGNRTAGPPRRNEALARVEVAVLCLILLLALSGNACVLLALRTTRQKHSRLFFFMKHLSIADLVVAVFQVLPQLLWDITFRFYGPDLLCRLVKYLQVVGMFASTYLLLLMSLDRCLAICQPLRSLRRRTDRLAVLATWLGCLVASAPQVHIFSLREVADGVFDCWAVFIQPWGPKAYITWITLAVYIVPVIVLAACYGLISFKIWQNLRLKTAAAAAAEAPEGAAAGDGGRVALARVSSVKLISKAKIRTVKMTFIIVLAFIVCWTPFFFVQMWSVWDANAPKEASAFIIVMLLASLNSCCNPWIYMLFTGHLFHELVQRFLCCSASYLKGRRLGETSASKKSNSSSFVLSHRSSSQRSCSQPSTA
Protocol description: Agonist activity at human OT receptor expressed in CHO-K1 cells by luciferase reporter gene assay
Assay type: functional, cell-based
Study conditions: read-out: EC50
Bridge positions count the residues as written; N and C are the ends. Square brackets hold non-standard residues; d marks the D form. Peptide text beside a SMILES is read from it. Orn(iPr) = CC(C)NCCC[C@H](N)C(=O)O; Orn(Pr) = CCCNCCC[C@H](N)C(=O)O; 2Thi = N[C@@H](Cc1cccs1)C(=O)O
Measurement name: pEC50
pEC50 is defined as minus the log10 of a concentration measured in mol/L.

{"columns": ["Compound", "pEC50"],
 "data": [
  ["CC[C@H](C)[C@@H]1NC(=O)[C@H](Cc2ccc(O)cc2)NC(=O)[C@@H](N)CSSC[C@@H](C(=O)N2CCC[C@H]2C(=O)N[C@@H](CCCN)C(=O)NCC(N)=O)NC(=O)[C@H](CC(N)=O)NC(=O)[C@H](CCC(N)=O)NC1=O", 8.48]
]}

May I ask what pEC50 has been recorded for CC[C@H](C)[C@@H]1NC(=O)[C@H](Cc2cccs2)NC(=O)[C@@H](N)CSSC[C@@H](C(=O)N2CCC[C@H]2C(=O)N[C@@H](CCCNC(C)C)C(=O)NCC(N)=O)NC(=O)[C@H](CC(N)=O)NC(=O)[C@H](CC(N)=O)NC1=O (H-C[2Thi]INNCP[Orn(iPr)]G-NH2; disulfide 1-6) ?
6.07

Any idea what its pEC50 is? The compound is CC[C@H](C)[C@@H]1NC(=O)[C@H](Cc2ccccc2)NC(=O)[C@@H](N)CSSC[C@@H](C(=O)N2CCC[C@H]2C(=O)N[C@@H](CCCNC(C)C)C(=O)NCC(N)=O)NC(=O)[C@H](CC(N)=O)NC(=O)[C@H](CC(N)=O)NC1=O (H-CFINNCP[Orn(iPr)]G-NH2; disulfide 1-6)
6.96

Find the recorded pEC50 belonging to CCCNCCC[C@H](NC(=O)[C@@H]1CCCN1C(=O)[C@@H]1CSSC[C@H](N)C(=O)N[C@@H](Cc2ccccc2)C(=O)N[C@@H]([C@@H](C)CC)C(=O)N[C@@H](CCC(N)=O)C(=O)N[C@@H](CC(N)=O)C(=O)N1)C(=O)NCC(N)=O (H-CFIQNCP[Orn(Pr)]G-NH2; disulfide 1-6) and report it.
7.49
